test.protocol: soluble on expression in E. coli; label from the status in PepcDB or PDB records
value.type: soluble on expression in E. coli

sequence_record=MGSDKIHHHHHHMVAMRIAIIGANGQLGTDLVEVFGNDPEFEVVPLTHKDLDVTIPESLKVLKEIKPDVLINTAAYVRVDDAELYPEKAFAVNAIGALNVARIANEIDAVNVYISTDYVFDGEKGEPYTEEDVPNPINVYGVSKYTGEIFTRNYSPKHYIIRVASLYGKAGASGKGGNFVEWVIEKAKHGEELKIVDDQFMSPTYTKDVARTLKEFLKLRSEFGVYHMVNEGFCSWYEFTEAIFDVLGWNVEIKPIKSNELNRLAKRPRFSALKNEKLEKIGLRMRHWREALEEYLKEKGYV value_type="soluble on expression in E. coli" observed_result="not soluble"
sequence_record=MGSDKIHHHHHHMLMNIGKVDNIKIYTLAEDYAGYNSPFWSQHGLSFLIEVESNGIKKRILFDTATYAEPILFNMKLLNINPKSIDMIILSHNHFDHTGGLFGIMKEINKEIPIFAHPNIFKVSFATEPEFMLAGTLNKTLKEDIEKLGGRWVLSRDPIRLMPGIFTLGEIEDEEKINFEKKPTIGLYKLENGRVVLDNVEDEIGLAIVTEKGLIIVSGCSHPGIVSMVKKSIKISGINKVYAVIGGFHLIDADNERIVSTIKALKKLGVKKICTGHCTGFKAENMFMEEFKEDFERLHAGKIIKF value_type="soluble on expression in E. coli" observed_result="not soluble"
sequence_record=MQALQERLEKLENATGSEVWEVLKASEPELRQDLSSLQKLKADKESAAREALTALKTKKNELKNLKNDVESLKNEYKTYIEMVENGLKQSGLDIKQVVQVFERVLEESLSEKRLAILSTIDSAHISDIKSIKTPVKSILKLLEDPNKLQLRILVQSELREFSNSAIEIFRRSLWDLFQNQGIPMKNLGEMPNSEDFLQKIGELFQFSTDLDKLIAGNWGKSIENLISAAFGQLSNYCIDIIENERGEADFEWILKSSHDWAKNLSQILQKTVEKSNLESELKQEFEEKFNEKFVDFIKLITRKFLEKNIKEPTIFSNVAQMLKKFKISSEFNLSGDRDLQEPFYEPKFMSRWILVYYIVAKISEYPVLTQLFAPLKITVVSKKIFFF value_type="soluble on expression in E. coli" observed_result="not soluble"

====

test.protocol: soluble on expression in E. coli; label from the status in PepcDB or PDB records
value.type: soluble on expression in E. coli

sequence_record=EPEQVIRKYTEELKVAPEEDCIICMEKLAVASGYSDMTDSKALGPMVVGRLTKCSHAFHLLCLLAMYCNGNKDGSLQCPSCKTIYGEKTGTQPWGKMEVFR observed_result=soluble
sequence_record=MKAMNKVWVIGDASVDLVPEKQNSYLKCPGGASANVGVCVARLGGECGFIGCLGDDDAGRFLRQVFQDNGVDVTFLRLDADLTSAVLIVNLTADGERSFTYLVHPGADTYVSPQDLPPFRQYEWFYFSSIGLTDRPAREACLEGARRMREAGGYVLFDVNLRSKMWGNTDEIPELIARSAALASICKVSADELCQLSGASHWQDARYYLRDLGCDTTIISLGADGALLITAEGEFHFPAPRVDVVDTTGAGDAFVGGLLFTLSRANCWDHALLAEAISNANACGAMAVTAKGAMTALPFPDQLNTFLSSHSLAQAMTVK observed_result="not soluble"
sequence_record=MIKKITISDLIRMGDEKEREWFMFHAEVERIFNDTEIVGIKYQATITYVIGELDEDVLNTVFESNWNKTAEVLKKHEIEVEDIKIDKNEKKVEIKLKTSGIVYREGLFEFEDIKELLKDVLARKIEEAWISVLQEHGYILEHHHHHH observed_result=soluble
sequence_record=MSLGSPKSVRIVVVGDKGTGKSSLIVAAATDSFPPNVPPVLPDYKLPIEFFPDGIPVTIVDTSSRPEDRDIVAEELKRADAVVLTYACDRPETLERLSEYWLPELRRLEVKIPIIVAGCKLDFRDDNNQVSLEQVMSPIMQQFREIETCIECSALKQLQAQEVFYYAQKTVLHPTGPLFDQEGHHHHHH observed_result=soluble
sequence_record=MTQPDRGKDRAGRRTKRFLTPSEKYEIWLQLVRQEVTIAEAAEQQQVDRSTIMRIRTVAKEGALAALAASKPGVAAAQRDYEMEAAKAEIARLSEAVKQMAVKLTLVEGKGGWA observed_result="not soluble"
sequence_record=MSLIGEILPLSHIVLDMEVGSKKRLFEEAGLLLERESSLSHADVFECLFAREKLGSTGLGQGVAIPHGRHAGVKQATGAFIRTREPVGFDAPDGKPVSLIFILLVPENATGEHLEVLSKLAGKFSQKSIRESLMTVSSAEEVRAILTEE observed_result=soluble
sequence_record=MEVSTSYCTPAVNFKYGSFQDSDVSMREDDLFRMGSYNSQGYYADGTHLDGSIGEEDETSSGSNDQHMDFEEDDFDMESSMTEDLVDEDEEEEDEEDNDEWTNQKRTDNQNSVAYYAAMEMLRIRFPFQSIAIRISDFCCLQEKDLLNDTMIDFYLNHIVEHVLPDSNGSNVTVLPSIFWHNLSLRQHAFDSEDEKMMSDEQKMDLKFGDLHDFVADFDLQDFDYIVVPVNEWEHWSLAVICHPFTAQARTVIFDSQLTADLNNLQNMATLIESFMKYSYEKRTGNAMPFPLPCILPQRMPQQTNNFDCGIFIAEFARRFLLSPPKDPATISLCFHPLATLL observed_result="not soluble"
